- System: β-galactosidase in CMV-LacZ C2C12 myoblasts
- experiment: CMV-LacZ secondary screen in C2C12 myoblasts (β-Gal stabilizing assay)
- Type: cell-based, mouse
- protocol_conditions: 5 uM; CMV-LacZ C2C12 myoblasts
Binary call on CMV-LACZ in Myoblasts (β-galactosidase activity relative to DMSO) with cut-off 1: strictly below means condition met, and equality or higher means condition not met.

Record excerpt, results attached:
c1ccc(-c2cn3c4c(sc3n2)CCCC4)cc1	condition not met
CC1(C)Cc2c(c(N3CCOCC3)nc3sc(C(=O)Nc4ccccc4)c(N)c23)CO1	condition not met
Fc1ccc(-c2ccnc3nc(N4CCN(c5ccccc5)CC4)nn23)cc1	condition met

In plain terms, does `Cc1cccc(NCC(=O)N/N=C\c2ccccn2)c1` come in under 1 for CMV-LACZ in Myoblasts (β-galactosidase activity relative to DMSO)?
condition not met

Quick one: `COCCSc1ccccc1C(=O)Nc1cc(C)cc(C)c1`
condition met

What do we get for COC(=O)Cn1c(=O)c2c(nc3n2CC(C)CN3Cc2ccccc2)n(C)c1=O (stereo not drawn) ?
condition not met

# iterate: `COc1ccccc1C(=O)OCc1ccc2sc(C)nc2c1`
condition not met

Param item: `Cc1ccc(C(=O)N2CCN(S(=O)(=O)N3CCOCC3)CC2)cc1`
condition met

All values here come from patent US9980943B2.
